molecular target: T1, HLA-DR2w2a (DRB5*0101), purified from transfected fibroblasts L416.3 (human); experiment: competition vs 125I-peptide, purified class II MHC
T1 chain 1: not shown
T1 chain 2: not shown
pIC50: −log10 of the molar value. Non-standard residues stand in square brackets, D forms with d. No end group written: not given here. 14 = not defined here
Readout: pIC50

[dA]K[14]VAAHTLKAA[dA]-NH2 (reading uncertain; also: printed as aK(14)VAAHTLKAAa-NH2) [peptide 955.15 (as printed), aK(14)…a-NH2] :: 8.27
